# TARGET_SYSTEM: ATP-dependent DNA helicase Q1 (Homo sapiens) (UniProt P46063)
# Sequence (P46063 whole entry, looked up): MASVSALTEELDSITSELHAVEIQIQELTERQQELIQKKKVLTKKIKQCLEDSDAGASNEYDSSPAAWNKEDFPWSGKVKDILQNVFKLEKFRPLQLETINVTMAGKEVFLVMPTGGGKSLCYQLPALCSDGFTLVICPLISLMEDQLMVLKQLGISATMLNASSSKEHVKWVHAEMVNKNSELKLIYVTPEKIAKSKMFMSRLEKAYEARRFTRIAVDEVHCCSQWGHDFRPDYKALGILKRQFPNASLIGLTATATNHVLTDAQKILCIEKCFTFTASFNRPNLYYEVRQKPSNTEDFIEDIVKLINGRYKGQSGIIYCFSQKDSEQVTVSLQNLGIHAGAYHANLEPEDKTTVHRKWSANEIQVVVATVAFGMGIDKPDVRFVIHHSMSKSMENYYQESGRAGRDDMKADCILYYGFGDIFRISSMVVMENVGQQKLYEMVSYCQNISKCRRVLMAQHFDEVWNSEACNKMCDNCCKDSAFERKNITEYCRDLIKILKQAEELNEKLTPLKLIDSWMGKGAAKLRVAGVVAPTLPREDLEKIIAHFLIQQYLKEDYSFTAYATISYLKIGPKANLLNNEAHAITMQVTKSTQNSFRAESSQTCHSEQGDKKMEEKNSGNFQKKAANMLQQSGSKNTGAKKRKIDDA
# ASSAY_REMARKS: qHTS Assay for Inhibitors of RecQ-Like Dna Helicase 1 (RECQ1); note: nearly all actives have a fitted effect of over 30% in size
# CONDITION_SET: RECQ1 DNA unwinding, red fluorescence kinetic read; series mostly up to 57.3 µM
In all, about 240,000 compounds went through this assay and about 1,300 (0.54%) were called active. Another 1% or so got no clear call; they are omitted. Calls come from the whole dose curve; as a rule, active = well fitted inhibition curve with a large enough effect; inconclusive = small, poorly fitted or top-dose-only effect; inactive = flat fitted curve, though single readings scatter. Only a selection was taken, and actives are over-represented in it overall.
Respond using exactly one of the listed classes: active, inactive

CCOC(=O)Cn1c(=O)sc2cccc(Cl)c21 : inactive
CCCCc1nn(-c2ccccc2C(F)(F)F)c(=O)n1Cc1ccc(-c2ccccc2S(=O)(=O)NC(=O)c2sccc2C)cc1 : inactive
COc1ccc(CCCOC(Cn2ccnc2)c2ccc(OC)cc2)cc1 (stereo unspecified) : inactive
Cn1cccc1/C=C1\SC(=O)N(CC(=O)Nc2ccc(F)cc2)C1=O : inactive
Cc1cccc(C2c3[nH]c4ccccc4c3CCN2C(=O)c2cc(-c3cccn3C)n[nH]2)n1 (stereo unspecified) : inactive
Oc1ccc(N=Cc2sc3ccccc3c2Cl)cc1 : active
O=C(N/N=C/c1c(Cl)[nH]c2ccccc12)c1sc2ccccc2c1Cl : inactive
CN1[C@H]2CC(OC(=O)[C@@H](CO)c3ccccc3)C[C@H]1[C@H]1O[C@H]12 (stereo partly specified) : inactive
O=C(O)C1CC=CC2CCN(C3CCCCC3)C(=O)C21 (stereo unspecified) : inactive
O=[N+]([O-])c1ccccc1S(=O)(=O)Nc1cccc2cccnc12 : inactive

Next molecule, please.
Call for entry CC(O)[C@@H](N)C(=O)O (stereo partly specified) :
inactive

* * *

# TARGET_SYSTEM: ATP-dependent DNA helicase Q1 (Homo sapiens)
# ASSAY_REMARKS: qHTS Assay for Inhibitors of RecQ-Like Dna Helicase 1 (RECQ1); note: nearly all actives have a fitted effect of over 30% in size
# CONDITION_SET: RECQ1 DNA unwinding, red fluorescence kinetic read; series mostly up to 57.3 µM
The whole screen tested about 240,000 compounds, of which about 1,300 (0.54%) were called active. Inconclusive results (about 1%) are left out. Calls follow the shape of the dose curve; as a rule, active = well fitted inhibition curve with a large enough effect; inconclusive = small, poorly fitted or top-dose-only effect; inactive = flat fitted curve, though single readings scatter. What follows is part of a selection rich in actives, with near analogues and random picks from the rest.
Respond using exactly one of the listed classes: active, inactive

Below, 3 molecules whose answers are already recorded.
O=[N+]([O-])c1ccc(C=Nc2ccc(Cl)cc2Cl)s1 : active
NC(=O)C1=C[C@@H](c2csc3ccccc23)C[C@@H](OCc2ccc(CO)cc2)O1 : inactive
O=C(CSc1ncn[nH]1)NCc1ccc2c(c1)OCO2 : inactive

Call for entry `CCc1nnc(NC(=O)c2sc3nc(C)cc(COC)c3c2N)s1` :
inactive

Call for entry `CN(c1ccccc1)c1ccc(/C=c2\s/c(=C(/C#N)C(=O)C(C)(C)C)n(Cc3ccco3)c2=O)cc1` :
active

Call for entry `CCc1ccc2nc3sc(C(=O)Nc4nnc(CC)s4)c(N)c3cc2c1` :
active

Call for entry CCOP(=O)(OCC)C(Nc1cccc(C)c1)c1ccc(F)cc1 (stereo not drawn) :
inactive

Call for entry `CCN1C(=O)c2cccc3c(N)ccc1c23` :
inactive

Call for entry `CCOc1ccc(NC(=O)CCC(=O)N/N=C/c2ccc([N+](=O)[O-])s2)cc1` :
inactive

Call for entry `O=C(Nc1ccc2nccnc2c1)c1ccco1` :
inactive

Call for entry O=C1c2cccc(OCC(=O)N3N=C(c4cccs4)CC3c3ccc(F)cc3)c2CCN1Cc1ccccc1 (stereo not drawn) :
inactive

Call for entry COC(=O)c1ccc(C(NC(=O)OCc2ccccc2)/C(F)=C/[C@@H](C)C(=O)O)cc1 (stereo partly drawn) :
inactive

Call for entry CN(C(=O)COC(=O)c1cc(-c2ccco2)nc2ccccc12)C1CCS(=O)(=O)C1 (stereo not drawn) :
active

Call for entry CCCCOC(=O)c1ccc(NC(c2ccc(C)cc2)P(=O)(OC)OC)cc1 (stereo not drawn) :
active

* * *

# TARGET_SYSTEM: ATP-dependent DNA helicase Q1 (Homo sapiens) (UniProt P46063)
# ASSAY_REMARKS: qHTS Assay for Inhibitors of RecQ-Like Dna Helicase 1 (RECQ1); note: nearly all actives have a fitted effect of over 30% in size
# CONDITION_SET: RECQ1 DNA unwinding, red fluorescence kinetic read; series mostly up to 57.3 µM
The whole screen tested about 240,000 compounds, of which about 1,300 (0.54%) were called active. Inconclusive results (about 1%) are left out. The call rests on the fitted dose curve; in most records, active means well fitted inhibition curve with a large enough effect; inconclusive means small, poorly fitted or top-dose-only effect; inactive means flat fitted curve, though single readings scatter. For the sample, actives were picked, then their nearest neighbours and some compounds at random.
Respond using exactly one of the listed classes: true for active, false for inactive

CC(=O)OC1C([N+]2(C)CCCCC2)C[C@H]2C3CC[C@H]4C[C@H](OC(C)=O)C([N+]5(C)CCCCC5)CC4(C)C3CCC12C (some centres not stated) : false

Call for entry `CNC(=O)[C@]1(C(F)(F)F)C[C@H](CCc2ccccc2)CCCO1` :
false

Call for entry `C[C@@H]1C(c2ccc(F)cc2)=NN(c2ccc(Br)cc2)[C@H]1C(=O)N1CCOC1=O` :
true

Call for entry CSc1ccccc1N1CCN(CCCCCC(=O)NC2CCCc3ccccc32)CC1 (configuration not stated) :
false

Call for entry `CCOC(OCC)OCC` :
false

Call for entry `O=C1N/C(=C/c2cccn2-c2ccccc2)C(=O)N1c1cccc(Cl)c1` :
false

* * *

# TARGET_SYSTEM: ATP-dependent DNA helicase Q1 (Homo sapiens)
# ASSAY_REMARKS: qHTS Assay for Inhibitors of RecQ-Like Dna Helicase 1 (RECQ1); note: nearly all actives have a fitted effect of over 30% in size
# CONDITION_SET: RECQ1 DNA unwinding, red fluorescence kinetic read; series mostly up to 57.3 µM
In all, about 240,000 compounds went through this assay and about 1,300 (0.54%) were called active. Another 1% or so got no clear call; they are omitted. The call rests on the fitted dose curve; in most records, active means well fitted inhibition curve with a large enough effect; inconclusive means small, poorly fitted or top-dose-only effect; inactive means flat fitted curve, though single readings scatter. This excerpt belongs to a sample that is enriched for actives.
Respond using exactly one of the listed classes: class 1 = active, class 0 = inactive

Below, 5 molecules whose answers are already recorded.
Cc1ccc(-n2nc3c(c2NC(=O)c2ccc4c(c2)OCO4)CSC3)c(C)c1 : class 0
COc1ccc(C2/C=C\CN(C(=O)c3ccc(C)cc3)C(Cc3ccccc3)C(=O)N2Cc2ccc(F)cc2)cc1 (centres undefined) : class 0
CC(C)(C)[C@H]1C=C(C(=O)NCc2ccccc2)O[C@@H](OCc2ccc(CO)cc2)C1 : class 0
C/C(=N\NC(=S)NCc1ccccc1)C1CCCCC1 : class 0
COc1ccc(Br)cc1C1C2C=CCC(C)C2C(=O)N1Cc1ccccc1 (centres undefined) : class 0

Call for entry `CC(C)C(=O)Nc1c(O)c2ccccc2[nH]c1=O` :
class 0

Call for entry `C/C(=N\NC(=S)NCc1ccccc1)c1ccc(Cl)cc1` :
class 1

Call for entry CC(=O)Nc1ccc(S(=O)(=O)N2N=NC3C2C2CC4C3(CN(C(=O)OC(C)(C)C)S4(=O)=O)O2)cc1 (centres undefined) :
class 0

Call for entry CC(=O)OCC(NC(=O)C(Cc1ccccc1)NC(=O)OC(C)(C)C)C1OC(n2ccc(=O)[nH]c2=O)C(OC(C)=O)C1OC(C)=O (centres undefined) :
class 0

Call for entry `O=C(O)c1ccc(/C=N/NC(=S)NCc2ccccc2)cc1` :
class 0

* * *

# TARGET_SYSTEM: ATP-dependent DNA helicase Q1 (Homo sapiens) (UniProt P46063)
# ASSAY_REMARKS: qHTS Assay for Inhibitors of RecQ-Like Dna Helicase 1 (RECQ1); note: nearly all actives have a fitted effect of over 30% in size
# CONDITION_SET: RECQ1 DNA unwinding, red fluorescence kinetic read; series mostly up to 57.3 µM
In all, about 240,000 compounds went through this assay and about 1,300 (0.54%) were called active. Roughly 1% stayed inconclusive and do not appear here. Calls follow the shape of the dose curve; as a rule, active = well fitted inhibition curve with a large enough effect; inconclusive = small, poorly fitted or top-dose-only effect; inactive = flat fitted curve, though single readings scatter. The list comes from a sample in which actives are over-represented; it also holds close analogues and randomly drawn compounds.
Respond using exactly one of the listed classes: class 1 = active, class 0 = inactive

Below, 8 compounds whose answers are already recorded.
O=C1c2ccccc2C(=O)N1Cc1cc(-c2ccccc2Cl)no1 : class 1
NC(N)=N/N=C/c1ccc(Cl)c([N+](=O)[O-])c1 : class 0
O=C1C[C@@H](c2ccc3ccccc3c2)N1S(=O)(=O)c1ccccc1[N+](=O)[O-] : class 0
CCC(C)NC(=O)CSC1=Nc2ccccc2C2=NC(CCC(=O)NCc3ccco3)C(=O)N12 (stereo not given) : class 0
O=[N+]([O-])c1ccc(N2CCSCC2)cc1O : class 0
COc1cc(OC)c2c(c1C(CCN1CCCCC1)c1ccc(N(C)C)cc1)OC(=O)CC2c1ccc(N(C)C)cc1 (stereo not given) : class 0
COc1ccc(-c2ccc(OC)c(C3C4C=CCC(C)C4C(=O)N3Cc3ccccc3)c2)cc1C (stereo not given) : class 0
O=C(CSC1=Nc2ccccc2C2=NC(CC(=O)NCc3ccco3)C(=O)N12)NCc1ccco1 (stereo not given) : class 0

Call for entry Cc1c(Cl)cccc1NC(=O)CC1SC(=NCC2CCCO2)NC1=O (stereo not given) :
class 0

Call for entry CC(C)C1N=C2c3ccccc3N=C(SCC(=O)c3ccc(O)c(O)c3)N2C1=O (stereo not given) :
class 1

* * *

# TARGET_SYSTEM: ATP-dependent DNA helicase Q1 (Homo sapiens) (UniProt P46063)
# ASSAY_REMARKS: qHTS Assay for Inhibitors of RecQ-Like Dna Helicase 1 (RECQ1); note: nearly all actives have a fitted effect of over 30% in size
# CONDITION_SET: RECQ1 DNA unwinding, red fluorescence kinetic read; series mostly up to 57.3 µM
# Method: Survival of cells and the faithful propagation of the genome depend on elaborate mechanisms of detecting and repairing DNA damage. […] The validation assay was a fluorescence quenching based kinetic qHTS for RECQ1 Helicase DNA unwinding. The activity was measured as ATP-dependent separation of a 20-bp DNA duplex extended by 30-nt single-stranded tails (forked duplex). […] Strand separation results in an increase in the fluorescence of TAMRA (excitation 525 nm, emission 598 nm). […]
In all, about 240,000 compounds went through this assay and about 1,300 (0.54%) were called active. About 1% were inconclusive and are not listed. Calls come from the whole dose curve; as a rule, active = well fitted inhibition curve with a large enough effect; inconclusive = small, poorly fitted or top-dose-only effect; inactive = flat fitted curve, though single readings scatter. The full list was thinned out, with actives kept by preference.
Respond using exactly one of the listed classes: t = active, f = inactive

Cc1ccc(S(=O)(=O)Oc2ccc(/C=N/NC(=O)c3c(Cl)cnn3C)cc2)cc1 : f
Cc1cc2nc3c(=O)n(Cc4ccccc4)c(=O)[nH]c3nc2cc1N : f
Cc1ccc(S(=O)(=O)N2CCC(=O)N([C@H](COCc3ccccc3)Cc3ccccc3)CC2)cc1 : f
COc1ccc(CCNC(=O)CSc2nnc(CNC(=O)c3cccs3)o2)cc1OC : f
Cc1ccc(NC(=O)CSc2nnc(CNC(=O)c3ccccc3F)o2)cc1 : f

Call for entry `CNc1nnc(-c2ccco2)s1` :
f

Call for entry `Nc1ccc2nc3c(=O)[nH]c(=S)[nH]c3nc2c1` :
t

Call for entry `O=C(Nc1ccc(Cl)cc1)Nc1nnc(/C=C/c2ccccc2)s1` :
f

Call for entry `COc1cc(C(=O)NCc2nnc(SCC(=O)Nc3nc4ccc(C)cc4s3)o2)cc(OC)c1OC` :
t

Call for entry CCCN1CCC(=O)N(C(CSc2ccc(C)cc2)Cc2ccccc2)CC1 (stereo not drawn) :
f

Call for entry O=P(O)(O)C(O)c1ccc2ccccc2c1 (stereo not drawn) :
f

Call for entry `COc1ccc(OCC(=O)Nc2nnc(-c3ccco3)s2)cc1` :
t

Call for entry `O=C(O)c1ccc(/C=C2/SC(=S)N(c3cccc(C(F)(F)F)c3)C2=O)cc1` :
f

Call for entry `O=C(N/N=C/C=C/c1ccco1)c1cccs1` :
t

Call for entry `Cc1ccc(OCC(=O)Nc2nnc(-c3ccco3)s2)cc1` :
f

Call for entry `COC(=O)c1ccc(S(=O)(=O)N2CCC(c3nc4ccccc4o3)CC2)cc1` :
f

Call for entry `Cc1ccc(-c2cc(C(=O)N/N=C/C=C/c3ccco3)c3ccccc3n2)cc1C` :
f
